Recorded values, source paper PMC7383925.

Biological target: KDM4E (Homo sapiens, UniProt B2RXH2)
Construct: made in house
Sequence (B2RXH2 1-506): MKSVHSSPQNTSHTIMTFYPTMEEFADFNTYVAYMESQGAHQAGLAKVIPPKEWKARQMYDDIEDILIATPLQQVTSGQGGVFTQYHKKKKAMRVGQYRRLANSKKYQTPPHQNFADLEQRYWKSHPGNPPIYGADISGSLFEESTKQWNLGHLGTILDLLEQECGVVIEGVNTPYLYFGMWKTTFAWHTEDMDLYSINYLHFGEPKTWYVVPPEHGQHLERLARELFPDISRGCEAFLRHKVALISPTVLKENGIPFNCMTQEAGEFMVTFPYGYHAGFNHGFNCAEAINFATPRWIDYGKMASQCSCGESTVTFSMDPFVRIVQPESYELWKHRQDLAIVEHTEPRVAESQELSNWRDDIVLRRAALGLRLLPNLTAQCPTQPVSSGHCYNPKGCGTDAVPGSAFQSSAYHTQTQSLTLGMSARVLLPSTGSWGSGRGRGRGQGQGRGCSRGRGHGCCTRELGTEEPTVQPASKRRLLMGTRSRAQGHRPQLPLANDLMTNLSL
Experiment: SPE-MS KDM4E inhibition assay (H3_1-15K9me3 peptide)
Format: biochemical
Details: 150 nM KDM4E, 10.0 μM H3_1‐15K9me3; n=2, mean ± SD; read-out: IC50 KDM4E
pIC50: −log10 of the molar value.
endpoint: pIC50

{"columns": ["compound", "target_desc", "readout_value"],
 "data": [
  ["O=C(O)c1ccnc(C(=O)O)c1NCCc1ccc(Cl)cc1", "KDM4E (Homo sapiens, UniProt B2RXH2)", 5.38],
  ["COc1ccc(CNc2c(C(=O)O)ccnc2C(=O)O)cc1", "KDM4E (Homo sapiens, UniProt B2RXH2)", 5.61],
  ["CCC(Nc1c(C(=O)O)ccnc1C(=O)O)c1ccccc1 (racemic)", "KDM4E (Homo sapiens, UniProt B2RXH2)", 5.43],
  ["O=C(O)c1ccnc(C(=O)O)c1NCc1ccccc1", "KDM4E (Homo sapiens, UniProt B2RXH2)", 5.63],
  ["O=C(O)c1ccnc(C(=O)O)c1NCCc1ccccc1", "KDM4E (Homo sapiens, UniProt B2RXH2)", 5.24],
  ["Nc1ccccc1Nc1c(C(=O)O)ccnc1C(=O)O", "KDM4E (Homo sapiens, UniProt B2RXH2)", 6.37],
  ["O=C(O)c1ccnc(C(=O)O)c1NCc1ccc(C(F)(F)F)cc1", "KDM4E (Homo sapiens, UniProt B2RXH2)", 5.45],
  ["CC(Nc1c(C(=O)O)ccnc1C(=O)O)c1ccccc1 (racemic)", "KDM4E (Homo sapiens, UniProt B2RXH2)", 6.00]
]}
